Data provenance: ChEMBL document CHEMBL1201862

Give measured GI50 for each item. Keep answers brief.
# Test system: RXF 631
# Measurement notes: NCI tumour cell line growth inhibition, 48 h
Counter-ions that a name gives are not always drawn. The source made the active and inactive calls. Cut-off read from the data, not from the text of the source: active = GI50 up to about 1.1 µM and inactive = higher.

IN: Please look up its GI50: `CCOC(=O)c1ccc(N2C(=O)/C(=C/c3ccc(N(CCC#N)CCC#N)cc3)N=C2c2cc([N+](=O)[O-])ccc2Cl)cc1`
OUT: > 100 µM (inactive)

IN: Try O=C1C2Cc3ccccc3CN2C(=O)N1CCN1CCCC1 (stereo not given) next.
OUT: > 100 µM (inactive)

IN: Would you kindly repeat that for O=c1ccn(/C=C/C(O)C(O)CO)c(=O)[nH]1 (stereo not given) ?
OUT: > 100 µM (inactive)

IN: Now consider `CCOC(=O)NC(=O)c1cn(CC(=O)NCC(=O)NCC(=O)NCCCN2CCN(CCCNC(=O)CNC(=O)CNC(=O)Cn3cc(C(=O)NC(=O)OCC)c(=O)[nH]c3=O)CC2)c(=O)[nH]c1=O` .
OUT: > 100 µM (inactive)

IN: Then this molecule: O=C(O)C1CC2CC(=O)C1C2 (stereo not given)
OUT: > 100 µM (inactive)

IN: Same question for `COc1cc2c(c(OC)c1OC)-c1ccc(SC)c(=O)cc1[C@@H](NCc1cccc(C#N)c1)CC2` please.
OUT: 0.0075 µM (active)

IN: One more molecule: `O=C(CCC(=O)Nc1ccc(Cl)c(Cl)c1)CC(=O)c1ccc(F)cc1`
OUT: > 100 µM (inactive)

IN: Same read-out for `O=C1CCC(O)=C1O` ?
OUT: > 100 µM (inactive)

IN: Okay, and `COc1cc(/C=C/C(=N\NC(=O)c2ccccc2)c2sc(Nc3ccc(Cl)c(Cl)c3)nc2C)ccc1O` ?
OUT: 20.6 µM (inactive)

IN: // same read-out, input: `O=C(Nc1ccc(Sc2ccc(/N=N/c3c(O)c(S(=O)(=O)O)cc4cc(S(=O)(=O)O)ccc34)cc2)cc1)c1ccc(/N=N/c2c(O)ccc3c(S(=O)(=O)O)cc(S(=O)(=O)O)cc23)cc1`
OUT: 41.3 µM (inactive)

IN: Let us now turn to `COc1ccc2c(c1)[n+]([O-])c(C(=O)C/C(=N/OCCCc1ccccc1)C(=O)NC13CC4CC(CC(C4)C1)C3)c(C)[n+]2[O-]`
OUT: > 100 µM (inactive)

IN: Please give the result for `COc1ccc(OC)c(/C=C/C(=O)C(C)(C)C)c1` too.
OUT: 32.8 µM (inactive)

IN: Would you kindly repeat that for CCOC(=O)C1=C(C)N(C2OC(COC(C)=O)C(OC(C)=O)C(OC(C)=O)C2OC(C)=O)C(=O)NC1c1ccccc1 (stereo not given) ?
OUT: > 100 µM (inactive)

IN: Check `N#C/C(=C\c1ccc[nH]1)C(=O)c1ccccc1` too.
OUT: > 100 µM (inactive)

IN: Can you check `COc1ccc(C[P+]2(c3ccccc3)CCCCC2)cc1.O=[N+]([O-])c1ccc(C[P+]2(c3ccccc3)CCCCC2)cc1.[O-][Cl+3]([O-])([O-])[O-].[O-][Cl+3]([O-])([O-])[O-]` next?
OUT: > 100 µM (inactive)

IN: Please do the same for `COc1ccc(/C=C\c2cc(OC)c(OC)c(OC)c2)cc1OC(=O)NCCN(C)C` as well.
OUT: 0.000196 µM (active)

IN: What do you have for COc1cc2c(cc1OC)C1(c3ccccc3)ON=C(c3ccccc3)N1CS2 (stereo not given) ?
OUT: > 100 µM (inactive)

IN: Follow-up entry: `NN/C(Cc1ccccc1)=N/NC(N)=S`
OUT: > 100 µM (inactive)

IN: // repeat for NCCSSCCN [CYSTAMINE HYDROCHLORIDE] and report
OUT: > 100 µM (inactive)

IN: Note, next up: Cc1nnc(N/N=C(/C(=O)C(C#N)c2ccc(Cl)cc2)C(C#N)c2ccc(Cl)cc2)n1N (stereo not given)
OUT: 19.8 µM (inactive)
